- Test system: SK-OV-3
- protocol_details: NCI tumour cell line growth inhibition, 48 h
Calls of active or inactive are those of the source. Rule as the data show it: active = GI50 up to about 1.1 µM and inactive = higher.
Outcome codes: active, inactive

>  <compound>
COc1cc(OC)c(-c2oc3ccccc3c(=O)c2O)c(OC)c1

>  <label_value>
inactive

$$$$
>  <compound>
O=C1CN(c2ccccc2)Cc2nc(Cl)ccc2N1

>  <label_value>
inactive

$$$$
>  <compound>
C#CCN(C(=O)C(F)(F)F)C(/C=C\C(=O)OC)(C(=O)OCC)C(=O)OCC

>  <label_value>
inactive

$$$$
>  <compound>
Nc1ccn([C@@H]2C[C@H](CO)[C@@H](O)[C@H]2O)c(=O)n1

>  <label_value>
inactive

$$$$
>  <compound>
N=C1C(=N)c2ccccc2-c2ccccc21

>  <label_value>
inactive

$$$$
>  <compound>
O=C1/C(=C\c2ccc(-c3ccc(Cl)cc3Cl)o2)SC2NC(COc3ccc(Cl)cc3)=NN12 (stereo not given)

>  <label_value>
inactive

$$$$
>  <compound>
CC(CN1CC(=O)NC(=O)C1)N1CC(=O)NC(=O)C1 (stereo not given) [RAZOXANE]

>  <label_value>
inactive

$$$$
>  <compound>
CCOc1ccc(Nc2nc(N)nc(N)c2N=O)cc1

>  <label_value>
inactive

$$$$
>  <compound>
CC(=O)OCOC(=O)CN(CC(=O)OCOC(C)=O)Cc1cc2c(cc1OC(C)=O)Oc1cc(OC(C)=O)c(CN(CC(=O)OCOC(C)=O)CC(=O)OCOC(C)=O)cc1C21OC(=O)c2ccccc21

>  <label_value>
inactive

$$$$
>  <compound>
COc1cc([C@@H]2c3cc4c(cc3[C@@H](NCCCN(C)C)[C@H]3COC(=O)[C@H]23)OCO4)cc(OC)c1O

>  <label_value>
active

$$$$

---

- Test system: TK-10
- protocol_details: NCI tumour cell line growth inhibition, 48 h
Calls of active or inactive are those of the source. Cut-off read from the data, not from the text of the source: active = GI50 up to about 1.1 µM and inactive = higher.

>  <compound>
COc1cc(CCN)c(OC)c(OC)c1

>  <GI50>
> 100 µM (inactive)

$$$$
>  <compound>
CC1(C)N=C(/C(Cl)=[N+](/[O-])C(=O)c2ccc(Cl)cc2)C(C)(C)N1O

>  <GI50>
19.8 µM (inactive)

$$$$
>  <compound>
OC(CCNCc1ccccc1)c1ccc2ccccc2c1 (stereo not given)

>  <GI50>
18.3 µM (inactive)

$$$$
>  <compound>
COc1ccc2c(c1OC)C(=O)N/C2=C\c1c(CCN(C)C)cc2c(c1OC)OCO2

>  <GI50>
> 100 µM (inactive)

$$$$
>  <compound>
COc1cc2c(c(OC)c1OC)-c1ccc(OC)c(=O)cc1C(NC(=O)c1ccc(N=[N+]=[N-])cc1)CC2 (stereo not given)

>  <GI50>
13 µM (inactive)

$$$$
>  <compound>
O=C1Nc2ccccc2C(=O)O/C(Cc2ccccc2)=N\c2ccccc21

>  <GI50>
> 100 µM (inactive)

$$$$
>  <compound>
Nc1ncnc2c1ncn2C1CC(OCc2ccccc2[N+](=O)[O-])C(CO)O1 (stereo not given)

>  <GI50>
30.8 µM (inactive)

$$$$
>  <compound>
Brc1cccc(Nc2ncnc3sc4c(c23)CCC2(C4)OCCO2)c1

>  <GI50>
7.73 µM (inactive)

$$$$
>  <compound>
c1ccc2c(c1)Nc1cccc3c1c-2nc1cc2ccccc2cc13

>  <GI50>
1.87 µM (inactive)

$$$$
>  <compound>
O=c1c(-c2ccccc2)c(O)nc2[nH]c3ccccc3n12

>  <GI50>
> 100 µM (inactive)

$$$$

---

- Test system: 786-0
- protocol_details: NCI tumour cell line growth inhibition, 48 h
Activity calls are given as the source filed them. No stated cut-off is given here; in the data, active = GI50 up to about 1.1 µM and inactive = higher.
// reported GI50 per item
measure: GI50

>  <compound>
CC1C(c2ccccc2)NC(c2ccccc2)CC1(N)C#N (configuration not stated)

>  <measure>
GI50

>  <result>
> 100 µM (inactive)

$$$$
>  <compound>
C=C(C)C1CC[C@@](C)(O)[C@H](C#N)C1 (some centres not stated)

>  <measure>
GI50

>  <result>
> 100 µM (inactive)

$$$$
>  <compound>
CC[C@@]1(O)C(=O)OCc2c1cc1n(c2=O)Cc2c-1nc1ccccc1c2/C=N/c1ccccc1N[C@@H]1c2cc3c(cc2[C@@H](c2cc(OC)c(O)c(OC)c2)[C@H]2C(=O)OC[C@@H]21)OCO3

>  <measure>
GI50

>  <result>
0.0213 µM (active)

$$$$
>  <compound>
COc1ccc2c(C)cc(N/N=C(\C)C=O)nc2c1

>  <measure>
GI50

>  <result>
11.6 µM (inactive)

$$$$
>  <compound>
O=C(O)C1C2C=CC(O2)C1C(=O)NCc1cccnc1 (configuration not stated)

>  <measure>
GI50

>  <result>
> 100 µM (inactive)

$$$$
>  <compound>
COC(=O)/C(=C/c1ccc(OC)cc1)NC(=O)c1ccccc1

>  <measure>
GI50

>  <result>
> 100 µM (inactive)

$$$$
>  <compound>
CC(C)(C)c1ccc2c(c1)C(O)(c1ccccc1)c1cc(C(C)(C)C)ccc1C2(O)C(F)(F)F (configuration not stated)

>  <measure>
GI50

>  <result>
1.88 µM (inactive)

$$$$
>  <compound>
COC(=O)Cc1cc(O)c2c(c1O)C(=O)c1ccccc1C2=O

>  <measure>
GI50

>  <result>
21.5 µM (inactive)

$$$$
>  <compound>
CN(C)CCC(=O)N1C/C(=C/c2ccccc2)C(=O)/C(=C\c2ccccc2)C1

>  <measure>
GI50

>  <result>
1.49 µM (inactive)

$$$$
>  <compound>
CCCCOC1CC2(c3ccc(OC)cc3)C(=O)c3ccccc3N2O1 (configuration not stated)

>  <measure>
GI50

>  <result>
88.1 µM (inactive)

$$$$
>  <compound>
O=c1oc2c/c(=C\c3ccccn3)c(=O)c3cccc1c3-2

>  <measure>
GI50

>  <result>
14.6 µM (inactive)

$$$$
>  <compound>
O=c1[nH]c(=O)n(C2CC(O)C(CO)O2)cc1C#Cc1ccc(F)cc1 (configuration not stated)

>  <measure>
GI50

>  <result>
> 100 µM (inactive)

$$$$

---

- Tested on: HOP-92
- protocol_details: NCI tumour cell line growth inhibition, 48 h
Active and inactive are the calls of the source. No stated cut-off is given here; in the data, active = GI50 up to about 1.1 µM and inactive = higher.
measure: GI50

>  <compound>
O=C1/C(=C\c2ccc(-c3ccc(Cl)cc3Cl)o2)SC2NC(COc3ccc(Cl)cc3)=NN12 (stereo unspecified)

>  <measure>
GI50

>  <result>
26.5 µM (inactive)

$$$$
>  <compound>
CC1(C)OCC(CO)(CO)CO1

>  <measure>
GI50

>  <result>
> 100 µM (inactive)

$$$$
>  <compound>
CC(O)C(N/C=C1/N=C(c2ccccc2)OC1=O)C(=O)O (stereo unspecified)

>  <measure>
GI50

>  <result>
> 100 µM (inactive)

$$$$
>  <compound>
CCOC(=O)c1c(SC(=O)C(C)(C)Oc2ccc(Cl)cc2)n(-c2ccccc2)c(=S)n(-c2ccccc2)c1=O

>  <measure>
GI50

>  <result>
35.6 µM (inactive)

$$$$
>  <compound>
Cc1ccc2nc(-c3nccn3C)cc(C(=O)NC(C)CN(C)C)c2c1 (stereo unspecified)

>  <measure>
GI50

>  <result>
46.3 µM (inactive)

$$$$
>  <compound>
C=CCN1/C(=C2\SC(=S)N(c3ccc(C)cc3)C2=O)Sc2c1nc[nH]c2=O

>  <measure>
GI50

>  <result>
> 100 µM (inactive)

$$$$
>  <compound>
O=C1CC2CCN(C(=O)c3ccccc3)CC2CCN1 (stereo unspecified)

>  <measure>
GI50

>  <result>
> 100 µM (inactive)

$$$$
>  <compound>
C[n+]1c2ccccc2cc2c(CNC(CCCNC(=N)N)C(=O)O)cccc21 (stereo unspecified)

>  <measure>
GI50

>  <result>
1.3 µM (inactive)

$$$$
>  <compound>
N#C[C@H](C(=O)c1ccccc1F)c1nc2ccccc2s1

>  <measure>
GI50

>  <result>
48.1 µM (inactive)

$$$$
>  <compound>
COc1cc(Oc2nc3ccccc3nc2C(=O)O)cc(OC)c1OC

>  <measure>
GI50

>  <result>
> 100 µM (inactive)

$$$$
>  <compound>
COc1ccc(-c2[nH]c(-c3ccc(OC)cc3)c(-c3ccccn3)c2-c2ccccn2)cc1

>  <measure>
GI50

>  <result>
> 100 µM (inactive)

$$$$
